The origin of these recorded values is the supplement of paper PMC10567573.

Task for the reader: assign each of the following variants its reported protein stability index.
B1: KRT18 (parent)
chain: PQVRDWSHYFKIIEDLRAQIFANT

variants of: B1; assay: protein stability index of a GFP-peptide fusion (GPS, HEK-293T) (PSI 1-6); higher = more stable; details: c terminus: a fixed tail appended;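 further: lentivirally expressed fusions sorted by FACS into six bins by GFP to DsRed ratio, PSI derived from sequencing read proportions per bin multiplied by bin number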
No unit in the answer, only the number.

In: Could you please provide reported protein stability index for W6L ? Thanks!
Out: 2.22

In: Could you please provide reported protein stability index for D5I ? Thanks!
Out: 2.46

In: Could you please provide reported protein stability index for H8G ? Thanks!
Out: 2.58

In: Could you please provide reported protein stability index for F10R ? Thanks!
Out: 2.58

In: Could you please provide reported protein stability index for I20D ? Thanks!
Out: 2.59

In: Could you please provide reported protein stability index for L16N ? Thanks!
Out: 2.62

In: Could you please provide reported protein stability index for L16D ? Thanks!
Out: 2.22

In: Could you please provide reported protein stability index for F10C ? Thanks!
Out: 2.25

In: Could you please provide reported protein stability index for F21Q ? Thanks!
Out: 2.46

In: Could you please provide reported protein stability index for F21W ? Thanks!
Out: 1.84

In: Could you please provide reported protein stability index for V3N ? Thanks!
Out: 2.06
